The measurements presented in this section are drawn from ChEMBL document CHEMBL4270660.

# ASSAY_SYSTEM: UniProt Q01959
# Sequence (Q01959 whole entry): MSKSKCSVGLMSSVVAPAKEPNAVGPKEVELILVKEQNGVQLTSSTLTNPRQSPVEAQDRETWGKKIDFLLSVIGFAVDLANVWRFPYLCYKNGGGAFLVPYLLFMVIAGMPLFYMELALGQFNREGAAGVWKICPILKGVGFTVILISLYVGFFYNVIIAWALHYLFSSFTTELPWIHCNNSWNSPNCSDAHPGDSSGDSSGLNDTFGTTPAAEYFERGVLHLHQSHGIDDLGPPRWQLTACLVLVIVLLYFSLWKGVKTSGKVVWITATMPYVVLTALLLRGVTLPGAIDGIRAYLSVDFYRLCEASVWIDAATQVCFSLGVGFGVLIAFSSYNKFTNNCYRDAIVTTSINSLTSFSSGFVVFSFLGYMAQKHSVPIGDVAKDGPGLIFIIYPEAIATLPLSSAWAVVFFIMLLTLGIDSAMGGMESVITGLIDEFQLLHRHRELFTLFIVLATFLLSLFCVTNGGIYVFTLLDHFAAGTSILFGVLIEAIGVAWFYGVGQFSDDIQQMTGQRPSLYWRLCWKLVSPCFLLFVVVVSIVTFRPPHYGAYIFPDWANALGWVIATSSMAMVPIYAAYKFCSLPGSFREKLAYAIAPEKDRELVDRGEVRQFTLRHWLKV
# MEASUREMENT_DESCRIPTION: Inhibition of [3H]dopamine uptake at human DAT expressed in HEK293 cells at 1 uM after 15 to 20 mins by microbeta scintillation counting method
# Format: cell-based
Calls of active or inactive are those of the source. The rule behind the calls is not given here.
EXPERIMENTAL_ENDPOINT: inhibition

{"COMPOUND": "CC(NC(C)(C)C)C(=O)c1cccc(Cl)c1 (centres undefined)", "VALUE_MEASURED": "78.3%"}
{"COMPOUND": "c1ccc(N2CCN(CCOc3ccc4ccccc4c3)CC2)nc1", "VALUE_MEASURED": "inactive"}
{"COMPOUND": "Fc1ccc(N2CCN(CCOc3ccc4ccccc4c3)CC2)cc1", "VALUE_MEASURED": "35.6%"}
{"COMPOUND": "Clc1cccc(N2CCN(CCOc3ccc4ccccc4c3)CC2)c1Cl", "VALUE_MEASURED": "inactive"}

Request: Need inhibition, item Brc1ccc(N2CCN(CCOc3ccc4ccccc4c3)CC2)cc1
Response: 19%

Request: Need inhibition, item Clc1ccc(N2CCN(CCOc3ccc4ccccc4c3)CC2)c(Cl)c1
Response: 48.5%

Request: Need inhibition, item c1ccc(N2CCN(CCOc3ccc4ccccc4c3)CC2)cc1
Response: 9%

Request: Need inhibition, item COc1ccccc1N1CCN(CCOc2ccc3ccccc3c2)CC1
Response: 19%

Request: Need inhibition, item Clc1ccc(N2CCN(CCOc3ccc4ccccc4c3)CC2)cc1
Response: 2%

Request: Need inhibition, item c1cnc(N2CCN(CCOc3ccc4ccccc4c3)CC2)nc1
Response: inactive

Request: Need inhibition, item Clc1cccc(N2CCN(CCOc3ccc4ccccc4c3)CC2)c1
Response: inactive
